# TARGET_OF_ASSAY: Nuclear receptor ROR-gamma (Homo sapiens, UniProt P51449)
# Sequence (P51449 whole entry): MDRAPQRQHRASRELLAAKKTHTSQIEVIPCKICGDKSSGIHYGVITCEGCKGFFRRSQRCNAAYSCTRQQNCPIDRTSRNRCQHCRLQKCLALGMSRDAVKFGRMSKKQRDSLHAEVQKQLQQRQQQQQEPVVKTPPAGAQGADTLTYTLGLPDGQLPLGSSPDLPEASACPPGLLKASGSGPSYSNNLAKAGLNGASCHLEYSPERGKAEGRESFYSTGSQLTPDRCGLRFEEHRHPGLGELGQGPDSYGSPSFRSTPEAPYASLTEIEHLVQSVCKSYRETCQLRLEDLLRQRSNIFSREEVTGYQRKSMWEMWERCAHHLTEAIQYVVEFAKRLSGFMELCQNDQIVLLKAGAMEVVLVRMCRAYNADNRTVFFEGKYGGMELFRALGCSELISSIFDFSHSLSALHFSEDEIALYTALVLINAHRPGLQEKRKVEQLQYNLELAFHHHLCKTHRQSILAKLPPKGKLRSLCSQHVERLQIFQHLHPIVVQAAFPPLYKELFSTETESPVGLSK
# PROTOCOL: Agonist activity at APC-labelled RORgammat (unknown origin) assessed as biotinylated SRC recruitment measured after 1 hr by dual FRET assay
pEC50: −log10 of the molar value.
MEASUREMENT_NAME: pEC50

Here's what some known entries look like.
> print(dat)
                    structure.smiles.string  measured
1  CCS(=O)(=O)c1ccc(CC(=O)Nc2ccc(CCN3CCCc4ccccc43)cc2)cc1      7.67
2  CCS(=O)(=O)c1ccc(CC(=O)Nc2ccc(CCN3CCCc4ccc(OC5COC5)cc43)cc2)cc1      8.18
3  CCS(=O)(=O)c1ccc(CC(=O)Nc2ccc(CCN3CCOc4ccc(OC(C)C)cc43)cc2)cc1      8.14

[I] CCS(=O)(=O)c1ccc(CC(=O)Nc2ccc(CCN3CCCc4ccc(CC(C)(C)C)cc43)cc2)cc1
[II] CCS(=O)(=O)c1ccc(CC(=O)Nc2ccc(CCN3CCCc4ccc(C=C(C)C)cc43)cc2)cc1
Given I and II , report the one with the higher recorded pEC50. When you have decided, please share the label of that item.
II
(II: 8.28, I: 7.52)
